# System: C. glabrata
# Run description: Checkerboard FIC assay in combination with fluconazole (MIC alone and in combination, FICI)
# Format: cell-based, Candida glabrata
# Conditions used: concentration in combination as multiple of the compound's MIC alone; fluconazole MIC 2 ug/mL
Property label: Multiple of compound MIC to synergize fluconazole MIC to 2 ug/mL

Consider the worked cases shown below.
• COCCOCCOCCNC(=O)c1ccc(CCCCc2ccc(CC(=O)NO)cc2)cc1 = (¼x)
• O=C(Cc1ccc(CCCC(F)c2ccccc2)cc1)NO (stereo not drawn) = (¼x)
• COc1ccc(CCCCc2ccc(CC(=O)NO)cc2)cc1OC = (¼x)
• O=C(Cc1ccc(CCC/C(=N\O)c2ccccc2)cc1)NO = (¼x)
• O=C(Cc1ccc(CCCCc2cccc(NS(=O)(=O)CCN3CCOCC3)c2)cc1)NO = (¼x)
• O=C(Cc1ccc(CCCCc2ccc(C(=O)N3CCN(C/C=C/c4ccccc4)CC3)cc2)cc1)NO = (½x)

Ask: Given CC(=O)Nc1cccc(CCCCc2ccc(CC(=O)NO)cc2)c1 , state its recorded Multiple of compound MIC to synergize fluconazole MIC to 2 ug/mL.
Reply: (¼x)

Ask: Another molecule to check: CN(C)CCSCC(=O)Nc1ccc(CCCCc2ccc(CC(=O)NO)cc2)cc1
Reply: (½x)

Ask: What about this molecule? O=C(Cc1ccc(CCCCc2cccc(NC(=O)CO)c2)cc1)NO
Reply: (½x)

Ask: Thanks! And O=C(Cc1ccc(CCCCc2ccc(OCCCN3CCOCC3)cc2)cc1)NO ?
Reply: (¼x)

Ask: Okay, and O=C(Cc1ccc(CCCCc2ccc(O)cc2)cc1)NO ?
Reply: (¼x)

Ask: Further, for O=C(Cc1ccc(CCCCc2ccc(NS(=O)(=O)CCN3CCOCC3)cc2)cc1)NO ?
Reply: (¼x)

Ask: Now consider O=C(Cc1cnc(CCCCc2ccccc2)s1)NO and answer again.
Reply: (¼x)

Ask: What do you have for CC(=O)Nc1ccc(CCCCc2ccc(CC(=O)NO)cc2)cc1 ?
Reply: (¼x)

Ask: Another: O=C(Cc1ccc(C(F)CCCc2ccccc2)cc1)NO (stereo not drawn)
Reply: (¼x)

Ask: Can you handle O=C(Cc1ccc(CCCC(F)(F)c2ccccc2)cc1)NO next?
Reply: (½x)

Ask: And the next one, CC(C(=O)NO)c1ccc(CCCCc2ccccc2)cc1 (stereo not drawn) ?
Reply: (¼x)

Ask: Moving on to the next molecule: CC(CCCc1ccc(CC(=O)NO)cc1)c1ccccc1 (stereo not drawn)
Reply: (½x)

###

# Tested on: C. glabrata
# Run description: Checkerboard FIC assay in combination with fluconazole (MIC alone and in combination, FICI)
# Assay type: cell-based, Candida glabrata
# Conditions used: C. glabrata; FICI using a fluconazole MIC of 128 μg/mL
Quick rule: FICI of combination resulting in fluconazole MIC of: 8 ug/mL (value in parenthesis) of at least 0.2 means Y, below that means N.

Past entries and their recorded results:
• COCCOCCOCCNC(=O)c1ccc(CCCCc2ccc(CC(=O)NO)cc2)cc1 [Example 11] = N
• O=C(Cc1ccc(CCCCc2ccc(NS(=O)(=O)CCN3CCOCC3)cc2)cc1)NO [Example 51] = N

Ask: Test whether the compound CC(=O)Nc1cccc(CCCCc2ccc(CC(=O)NO)cc2)c1 [Example 42] records FICI of combination resulting in fluconazole MIC of: 8 ug/mL (value in parenthesis) of 0.2 or higher.
Reply: N

Ask: Request: CC(=O)Nc1ccc(CCCCc2ccc(CC(=O)NO)cc2)cc1 [Example 39]
Reply: N

Ask: Same lookup for O=C(Cc1cnc(CCCCc2ccccc2)s1)NO [Example 2] , please.
Reply: N

Ask: Another compound: COCCOCCOCC(=O)Nc1ccc(CCCCc2ccc(CC(=O)NO)cc2)cc1 [Example 35]
Reply: N

Ask: Again, but for O=C(Cc1ccc(CCCCc2cccc(NS(=O)(=O)CCN3CCOCC3)c2)cc1)NO [Example 53]
Reply: N

Ask: And for O=C(Cc1ccc(CCCCc2ccc(C(=O)O)cc2)cc1)NO [Example 14] ?
Reply: Y

Ask: What do you have for O=C(Cc1ccc(CCCCc2ccc(NC(=O)CO)cc2)cc1)NO [Example 36] ?
Reply: N

Ask: Next compound: O=C(Cc1ccc(CCCCc2ccc(C(=O)N3CCN(C/C=C/c4ccccc4)CC3)cc2)cc1)NO [Example 20]
Reply: Y

Ask: Another compound to check: CC(C(=O)NO)c1ccc(CCCCc2ccccc2)cc1 (stereo not drawn) [Example 55]
Reply: N

###

# System: C. glabrata
# Run description: Checkerboard FIC assay in combination with fluconazole (MIC alone and in combination, FICI)
# Type: cell-based, Candida glabrata
# Conditions used: concentration in combination as multiple of the compound's MIC alone; fluconazole MIC 8 ug/mL
Property label: Multiple of compound MIC to synergize fluconazole MIC to 8 ug/mL

Use these answered entries as a reference point.
• O=C(Cc1ccc(CCCCc2ccc(NS(=O)(=O)CCN3CCOCC3)cc2)cc1)NO [Example 51] = (⅛x)
• O=C(Cc1csc(CCCCc2ccccc2)n1)NO [Example 1] = (⅛x)
• O=C(Cc1ccc(CCCCc2cccc(NC(=O)NCCN3CCOCC3)c2)cc1)NO [Example 50] = (⅛x)
• O=C(Cc1ccc(C(F)CCCc2ccccc2)cc1)NO (centres unmarked) [Example 61] = (⅛x)

Ask: I have this compound here, COCCOCCOCCNC(=O)c1ccc(CCCCc2ccc(CC(=O)NO)cc2)cc1 [Example 11] , and I need its recorded Multiple of compound MIC to synergize fluconazole MIC to 8 ug/mL.
Reply: (⅛x)

Ask: What do we get for O=C(Cc1ccc(CCCC(F)(F)c2ccccc2)cc1)NO [Example 29] ?
Reply: (¼x)

Ask: Try this compound too: CN1CCC(C(=O)Nc2ccc(CCCCc3ccc(CC(=O)NO)cc3)cc2)CC1.Cl [Example 34]
Reply: (⅛x)

Ask: Entry O=C(Cc1ccc(CCCCc2ccc(O)c(O)c2)cc1)NO [Example 19] please
Reply: (¼x)

Ask: Cool, now O=C(Cc1ccc(CCCCc2ccc(C(=O)N3CCN(CCn4ccnc4)CC3)cc2)cc1)NO [Example 21]
Reply: (⅛X)

Ask: Note, next up: O=C(Cc1ccc(CCCCc2ccc(-c3ccccc3)cc2)cc1)NO [Example 5]
Reply: ( 1/16x)

Ask: Lookup O=C(Cc1ccc(CCCCc2ccc(NC(=O)NCCN3CCOCC3)cc2)cc1)NO [Example 47]
Reply: (¼x)

Ask: Next compound up: COc1ccc(CCCCc2ccc(CC(=O)NO)cc2)cc1OC [Example 13]
Reply: (⅛x)

Ask: Please do the same for O=C(Cc1ccc(CCCCc2cccc(NC(=O)CO)c2)cc1)NO [Example 41] as well.
Reply: (¼x)

Ask: Please answer likewise for O=C(Cc1ccc(CCCCc2ccc(OCCCN3CCOCC3)cc2)cc1)NO [Example 16]
Reply: (⅛x)

Ask: Next record, please: COCCOCCOCCNS(=O)(=O)c1ccc(CCCCc2ccc(CC(=O)NO)cc2)cc1 [Example 12]
Reply: (⅛x)

Ask: Then this compound: Cc1ccc(CCCCc2ccc(CC(=O)NO)cc2)cc1 [Example 4]
Reply: (¼x)

Ask: Same question, O=C(Cc1ccc(CCCC(F)c2ccccc2)cc1)NO (centres unmarked) [Example 26] this time
Reply: ( 1/16x)

###

# Tested on: C. glabrata
# Run description: Checkerboard FIC assay in combination with fluconazole (MIC alone and in combination, FICI)
# Format: cell-based, Candida glabrata
# Conditions used: C. glabrata; FICI calculated using a fluconazole MIC of 16 μg/mL
Property label: FICI of combination resulting in fluconazole MIC of: 8 ug/mL
Keep it simple and answer with nothing but the number.

# annotated cases, reported FICI of combination resulting in fluconazole MIC of: 8 ug/mL shown
• O=C(Cc1ccc(CCCCC2CCCCC2)cc1)NO = 0.730
• O=C(Cc1ccc(CCCCc2ccc(NC(=O)NCCN3CCOCC3)cc2)cc1)NO = 0.500
• O=C(Cc1ccc(CCC(O)Cc2ccccc2)cc1)NO (centres unmarked) = 0.500
• O=C(Cc1ccc(CCCCc2cccc(NC(=O)CO)c2)cc1)NO = 0.500
• O=C(Cc1ccc(CCCCc2ccc(O)cc2)cc1)NO = 0.625
• O=C(Cc1ccc(CCCCc2cccc(NC(=O)NCCN3CCOCC3)c2)cc1)NO = 0.375
• Cn1ccc2cc(CCCCc3ccc(CC(=O)NO)cc3)ccc21 = 0.370
• COC(=O)Nc1ccc(CCCCc2ccc(CC(=O)NO)cc2)cc1 = 0.313

Ask: Please report the recorded FICI of combination resulting in fluconazole MIC of: 8 ug/mL for CN1CCN(CCNC(=O)Nc2cccc(CCCCc3ccc(CC(=O)NO)cc3)c2)CC1 .
Reply: 0.313

Ask: Likewise for O=C(Cc1ccc(C(F)CCCc2ccccc2)cc1)NO (centres unmarked) ?
Reply: 0.375

Ask: Now consider O=C(Cc1ccc(CCCCc2ccc(C(=O)NCCCn3ccnc3)cc2)cc1)NO and answer again.
Reply: 0.313

Ask: Query O=C(Cc1ccc(CCCCc2ccc(C(=O)N3CCN(CCn4ccnc4)CC3)cc2)cc1)NO next
Reply: 0.375

Ask: And COCCOCCOCC(=O)Nc1ccc(CCCCc2ccc(CC(=O)NO)cc2)cc1 ?
Reply: 0.625
